system: CCRIS mutagenicity, Ames/micronucleus/aberration tests; experiment: CCRIS mutagenicity studies; conditions: Test System: AMES SALMONELLA TYPHIMURIUM; Strain/Indicator: TA1535; Metabolic Activation: NONE; Method: PREINCUBATION
Calls of active or inactive are those of the source. The rule behind the calls is not given here.
// classify into y for active, n for inactive

A selection of reference data follows.
molecule=Cc1cc(N=Nc2c(O)ccc3ccccc23)c(S(=O)(=O)O)cc1Cl experimentaltarget="CCRIS mutagenicity, Ames/micronucleus/aberration tests" classname=n
molecule=CC[C@H]1CN2CCc3cc(OC)c(OC)cc3[C@@H]2C[C@@H]1C[C@H]1NCCc2cc(OC)c(OC)cc21 experimentaltarget="CCRIS mutagenicity, Ames/micronucleus/aberration tests" classname=n
molecule="CCCCOCC1CO1 (stereo not given)" experimentaltarget="CCRIS mutagenicity, Ames/micronucleus/aberration tests" classname=y
molecule=O[C@@H]1[C@@H]2O[C@@H]2C=C[C@H]1O experimentaltarget="CCRIS mutagenicity, Ames/micronucleus/aberration tests" classname=y
molecule=CC(=O)Nc1ccccc1N experimentaltarget="CCRIS mutagenicity, Ames/micronucleus/aberration tests" classname=n

Exercise: How did this test come out for CC1(C)CC(N=C=O)CC(C)(CN=C=O)C1 (stereo not given) ?
Key: n

Exercise: How did this test come out for Clc1ccc(CCC2CO2)cc1 (stereo not given) ?
Key: n

Exercise: How did this test come out for CN(N=O)C(N)=O ?
Key: y

Exercise: How did this test come out for CC(=O)/C=C/c1ccco1 ?
Key: n

Exercise: How did this test come out for ClCC(Cl)CCl ?
Key: n

Exercise: How did this test come out for [Cl][Cr]([Cl])[Cl] ?
Key: n

Exercise: How did this test come out for O=C1C=CC(=O)c2c(O)ccc(O)c21 ?
Key: n

Exercise: How did this test come out for Oc1cc(Cl)c(Cl)c(Cl)c1 ?
Key: n

Exercise: How did this test come out for COc1ccc2c3c1O[C@H]1[C@@H](O)C=C[C@H]4[C@@H](C2)N(C)CC[C@@]341 ?
Key: n

Exercise: How did this test come out for C[C@@H]1[C@H](O)[C@@H](C)/C=C/C=C/C=C/C=C/C=C/C=C/C=C/[C@H](O[C@@H]2O[C@H](C)[C@@H](O)[C@H](N)[C@@H]2O)C[C@@H]2O[C@](O)(C[C@@H](O)C[C@@H](O)[C@H](O)CC[C@@H](O)C[C@@H](O)CC(=O)O[C@H]1C)C[C@H](O)[C@H]2C(=O)O ?
Key: n
